The entries below are paired with their reported pIC50.
# tested.on: Recombinant purified human JAK3 (Homo sapiens)
# Sequence (P52333 1-1124): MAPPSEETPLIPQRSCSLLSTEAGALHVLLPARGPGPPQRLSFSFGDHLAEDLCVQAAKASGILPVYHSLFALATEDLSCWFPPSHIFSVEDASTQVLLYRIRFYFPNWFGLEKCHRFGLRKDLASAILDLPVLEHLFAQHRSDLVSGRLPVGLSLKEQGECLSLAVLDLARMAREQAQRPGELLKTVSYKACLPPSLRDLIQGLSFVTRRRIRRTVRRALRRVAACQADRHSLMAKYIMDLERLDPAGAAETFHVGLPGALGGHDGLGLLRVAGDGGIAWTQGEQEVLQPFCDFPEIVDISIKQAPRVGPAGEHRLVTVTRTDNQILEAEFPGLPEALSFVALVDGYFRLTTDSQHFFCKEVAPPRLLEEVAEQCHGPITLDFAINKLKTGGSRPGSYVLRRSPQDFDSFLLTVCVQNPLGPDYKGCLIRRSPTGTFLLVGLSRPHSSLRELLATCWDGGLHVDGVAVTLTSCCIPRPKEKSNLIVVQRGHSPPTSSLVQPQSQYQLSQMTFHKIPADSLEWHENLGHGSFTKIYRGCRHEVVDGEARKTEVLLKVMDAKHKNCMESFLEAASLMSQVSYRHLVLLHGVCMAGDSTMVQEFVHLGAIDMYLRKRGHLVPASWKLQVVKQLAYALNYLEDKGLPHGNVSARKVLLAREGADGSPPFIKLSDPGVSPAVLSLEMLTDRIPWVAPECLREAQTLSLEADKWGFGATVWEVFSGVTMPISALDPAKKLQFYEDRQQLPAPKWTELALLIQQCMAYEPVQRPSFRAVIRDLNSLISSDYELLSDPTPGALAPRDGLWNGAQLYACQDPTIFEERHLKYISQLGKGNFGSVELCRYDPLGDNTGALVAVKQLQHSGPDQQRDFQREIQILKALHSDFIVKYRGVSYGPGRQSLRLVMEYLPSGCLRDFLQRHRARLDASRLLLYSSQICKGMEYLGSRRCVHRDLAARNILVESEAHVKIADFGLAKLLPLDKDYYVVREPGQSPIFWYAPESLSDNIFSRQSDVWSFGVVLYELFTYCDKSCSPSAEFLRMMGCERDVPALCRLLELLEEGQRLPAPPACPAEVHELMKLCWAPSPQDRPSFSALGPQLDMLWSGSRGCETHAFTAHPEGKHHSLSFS
# assay.info: JAK3 inhibitory activity test (ADP-Glo kinase assay)
# recorded.conditions: ATP 5 uM, 1 hour incubation at 30° C.
Schema: pIC50 number; meaning minus log10 of the concentration expressed in molar units.

Before answering, review these 2 worked examples.
structure.notation	pIC50
C=CC(=O)Nc1cccc(Oc2cccc3nc(Nc4cccc(Oc5ccccc5)c4)nn23)c1	7.45
C=CC(=O)Nc1cccc(Oc2cccc3nc(Nc4ccc5nc(Cl)sc5c4)nn23)c1	7.99

Query: Give its pIC50 value. Item: C=CC(=O)Nc1cccc(Oc2cccc3nc(Nc4ccc(C(=O)N5CCOCC5)cc4)nn23)c1
Reply: 9.15

Query: Given the compound C=CC(=O)Nc1ccc(F)c(Oc2cccc3nc(Nc4ccc(N5CCOCC5)cc4)nn23)c1 , what is its reported pIC50?
Reply: 8.89

Origin of the recorded values: patent US20220389010A1
